viability, T/C reference
System: 521955-158-R2-J5-PDC complex spheroid viability
Test: Anticancer human tumor 521955-158-R2-J5-PDC patient-derived pancreatic carcinoma cell line growth inhibition
Conditions: second compound 10 µM; first compound 3.16 µM; active compounds read low
State the answer as a number, implicitly in %.

Illustrative cases are given below, each with its answer.
| MOLECULE | viability, T/C, % |
| --- | --- |
| CC1COCCN1c1cc(C2(S(C)(=N)=O)CC2)nc(-c2ccnc3[nH]ccc23)n1 (stereo not drawn) + NC1CC1c1ccc(-c2cccc(O)c2)cc1 | 14.9 |
| CC1(C)CCC(CN2CCN(c3ccc(C(=O)NS(=O)(=O)c4ccc(NCC5CCOCC5)c([N+](=O)[O-])c4)c(Oc4cnc5[nH]ccc5c4)c3)CC2)=C(c2ccc(Cl)cc2)C1 + NC1CC1c1ccc(-c2cccc(O)c2)cc1 | 61.2 |

Moving on to the next molecule.
Incoming: Which viability, T/C is reported for this molecule? CC1(C)CCC(CN2CCN(c3ccc(C(=O)NS(=O)(=O)c4ccc(NCC5CCOCC5)c([N+](=O)[O-])c4)c(Oc4cnc5[nH]ccc5c4)c3)CC2)=C(c2ccc(Cl)cc2)C1 + NC1CCC(NC2CC2c2ccccc2)CC1
Outgoing: 59.1

* * *

Tested on: 521955-158-R2-J5-PDC complex spheroid viability
Experiment: Anticancer human tumor 521955-158-R2-J5-PDC cell line growth inhibition; active = viability on the fitted dose curve at most 10% of control; inactive = the rest
Details: second compound 3.16 µM; first compound 0.0316 µM
One label from this list, please: yes (1) = active, no (0) = inactive

| COMPOUND | TARGET_OR_TEST_SYSTEM | ASSIGNED_LABEL |
| --- | --- | --- |
| CC1COCCN1c1cc(-c2ccnn2C)c2ccnc(-c3ccn[nH]3)c2n1 (stereo unspecified) + NC1CCC(NC2CC2c2ccccc2)CC1 | 521955-158-R2-J5-PDC complex spheroid viability | no (0) |
| CC1(C)CCC(CN2CCN(c3ccc(C(=O)NS(=O)(=O)c4ccc(NCC5CCOCC5)c([N+](=O)[O-])c4)c(Oc4cnc5[nH]ccc5c4)c3)CC2)=C(c2ccc(Cl)cc2)C1 + NC1CCC(NC2CC2c2ccccc2)CC1 | 521955-158-R2-J5-PDC complex spheroid viability | no (0) |
| CC[C@@]1(O)C(=O)OCc2c1cc1n(c2=O)Cc2cc3c(CN(C)C)c(O)ccc3nc2-1 + NC1CC1c1ccc(-c2cccc(O)c2)cc1 | 521955-158-R2-J5-PDC complex spheroid viability | no (0) |

Incoming: Dear all, I need the recorded test outcome for CC1(C)CCC(CN2CCN(c3ccc(C(=O)NS(=O)(=O)c4ccc(NCC5CCOCC5)c([N+](=O)[O-])c4)c(Oc4cnc5[nH]ccc5c4)c3)CC2)=C(c2ccc(Cl)cc2)C1 + NC1CC1c1ccc(-c2cccc(O)c2)cc1 , thank you.
Outgoing: no (0)

Incoming: Dear all, I need the recorded test outcome for CC(C)CC(NC(=O)CNC(=O)c1cc(Cl)ccc1Cl)B1OC(=O)CC(CC(=O)O)(C(=O)O)O1 (stereo unspecified) + NC1CC1c1ccc(-c2cccc(O)c2)cc1 , thank you.
Outgoing: yes (1)

Incoming: Dear all, I need the recorded test outcome for CC(C)c1c(-c2ccccc2)nc2c(C#N)c[nH]n2c1=O + NC1CC1c1ccc(-c2cccc(O)c2)cc1 , thank you.
Outgoing: no (0)

* * *

System: 521955-158-R2-J5-PDC complex spheroid viability
Experiment: Anticancer human tumor 521955-158-R2-J5-PDC cell line growth inhibition; active = viability on the fitted dose curve at most 10% of control; inactive = the rest;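 also: spheroids exposed to agents for seven days; percent of DMSO vehicle control luminescence viability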
Conditions: second compound 3.16 µM; first compound 0.0316 µM
One label from this list, please: active, inactive

Incoming: Dear all, I need the recorded test outcome for O=C(C=Cn1cnc(-c2cc(C(F)(F)F)cc(C(F)(F)F)c2)n1)NNc1cnccn1 + NC1CC1c1ccc(-c2cccc(O)c2)cc1 , thank you.
Outgoing: inactive

Incoming: Dear all, I need the recorded test outcome for CC1COCCN1c1cc(C2(S(C)(=N)=O)CC2)nc(-c2ccnc3[nH]ccc23)n1 (configuration not stated) + NC1CCC(NC2CC2c2ccccc2)CC1 , thank you.
Outgoing: inactive

Incoming: Dear all, I need the recorded test outcome for CC(C)CC(NC(=O)CNC(=O)c1cc(Cl)ccc1Cl)B1OC(=O)CC(CC(=O)O)(C(=O)O)O1 (configuration not stated) + NC1CCC(NC2CC2c2ccccc2)CC1 , thank you.
Outgoing: active

Incoming: Dear all, I need the recorded test outcome for COc1ccc([C@@H](O)c2cc(-c3ncnc4cc(N5CCOCC5)ccc34)c(F)cc2Cl)nn1 + NC1CCC(NC2CC2c2ccccc2)CC1 , thank you.
Outgoing: inactive

* * *

System: 521955-158-R2-J5-PDC complex spheroid viability
Assay: Anticancer human tumor 521955-158-R2-J5-PDC cell line growth inhibition;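 also: spheroids exposed to agents for seven days; percent of DMSO vehicle control luminescence viability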
Conditions: second compound 1 µM; first compound 0.01 µM; active compounds read low
viability, T/C reference
State the answer as a number, implicitly in %.

Illustrative cases are given below, each with its answer.
| COMPOUND | viability, T/C / % |
| --- | --- |
| O=C(C=Cn1cnc(-c2cc(C(F)(F)F)cc(C(F)(F)F)c2)n1)NNc1cnccn1 + NC1CC1c1ccc(-c2cccc(O)c2)cc1 | 66.5 |
| Nc1ncn(C2CC(O)C(CO)O2)c(=O)n1 (configuration not stated) + NC1CC1c1ccc(-c2cccc(O)c2)cc1 | 91.2 |
| CC(C)CC(NC(=O)CNC(=O)c1cc(Cl)ccc1Cl)B1OC(=O)CC(CC(=O)O)(C(=O)O)O1 (configuration not stated) + NC1CC1c1ccc(-c2cccc(O)c2)cc1 | 13 |
| O=C(C=Cn1cnc(-c2cc(C(F)(F)F)cc(C(F)(F)F)c2)n1)NNc1cnccn1 + NC1CCC(NC2CC2c2ccccc2)CC1 | 31.5 |
| CC(C)CC(NC(=O)C(Cc1ccccc1)NC(=O)c1cnccn1)B(O)O (configuration not stated) + NC1CCC(NC2CC2c2ccccc2)CC1 | 0.04 |
| CC(C)CC(NC(=O)C(Cc1ccccc1)NC(=O)c1cnccn1)B(O)O (configuration not stated) + NC1CC1c1ccc(-c2cccc(O)c2)cc1 | 0.04 |

Moving on to the next compound.
Incoming: Which viability, T/C is reported for this compound? Cn1ncnc1C1c2n[nH]c(=O)c3cc(F)cc(c23)NC1c1ccc(F)cc1 (configuration not stated) + NC1CC1c1ccc(-c2cccc(O)c2)cc1
Outgoing: 91.8

* * *

Test system: 521955-158-R2-J5-PDC complex spheroid viability
Assay: Anticancer human tumor 521955-158-R2-J5-PDC cell line growth inhibition;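 also: spheroids exposed to agents for seven days; percent of DMSO vehicle control luminescence viability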
Details: second compound 10 µM; first compound 3.16 µM; active compounds read low
Please respond with 1 when measured viability, T/C is strictly beneath 30%, and with 0 in all other cases.

| MOLECULE | ASSIGNED_LABEL |
| --- | --- |
| CC1COCCN1c1cc(C2(S(C)(=N)=O)CC2)nc(-c2ccnc3[nH]ccc23)n1 (configuration not stated) + NC1CCC(NC2CC2c2ccccc2)CC1 | 1 |
| O=C(c1cc(Cc2n[nH]c(=O)c3ccccc23)ccc1F)N1CCN(C(=O)C2CC2)CC1 + NC1CCC(NC2CC2c2ccccc2)CC1 | 0 |
| O=C(c1cc(Cc2n[nH]c(=O)c3ccccc23)ccc1F)N1CCN(C(=O)C2CC2)CC1 + NC1CC1c1ccc(-c2cccc(O)c2)cc1 | 0 |
| CC(C)c1c(-c2ccccc2)nc2c(C#N)c[nH]n2c1=O + NC1CC1c1ccc(-c2cccc(O)c2)cc1 | 0 |
| COc1ccc([C@@H](O)c2cc(-c3ncnc4cc(N5CCOCC5)ccc34)c(F)cc2Cl)nn1 + NC1CC1c1ccc(-c2cccc(O)c2)cc1 | 0 |

From here, focus on the item given below.
Incoming: hey, is viability, T/C for CC(C)c1c(-c2ccccc2)nc2c(C#N)c[nH]n2c1=O + NC1CCC(NC2CC2c2ccccc2)CC1 lower than 30% or not?
Outgoing: 0

* * *

Test system: 521955-158-R2-J5-PDC complex spheroid viability
Experiment: Anticancer human tumor 521955-158-R2-J5-PDC cell line growth inhibition;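 also: spheroids exposed to agents for seven days; percent of DMSO vehicle control luminescence viability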
Conditions: second compound 3.16 µM; first compound 0.000949 µM; active compounds read low
PROPERTY_LABEL: viability, T/C (%)
State the answer as a number, implicitly in %.

| COMPOUND | TARGET_OR_TEST_SYSTEM | viability, T/C, % |
| --- | --- | --- |
| CCc1c2c(nc3ccc(O)cc13)-c1cc3c(c(=O)n1C2)COC(=O)[C@]3(O)CC + NC1CCC(NC2CC2c2ccccc2)CC1 | 521955-158-R2-J5-PDC complex spheroid viability | 4.43 |
| Nc1ccn(C2OC(CO)C(O)C2(F)F)c(=O)n1 (stereo unspecified) + NC1CCC(NC2CC2c2ccccc2)CC1 | 521955-158-R2-J5-PDC complex spheroid viability | 104 |
| Nc1ncn(C2CC(O)C(CO)S2)c(=O)n1 (stereo unspecified) + NC1CC1c1ccc(-c2cccc(O)c2)cc1 | 521955-158-R2-J5-PDC complex spheroid viability | 98.5 |
| CCc1c2c(nc3ccc(O)cc13)-c1cc3c(c(=O)n1C2)COC(=O)[C@]3(O)CC + NC1CC1c1ccc(-c2cccc(O)c2)cc1 | 521955-158-R2-J5-PDC complex spheroid viability | 13.4 |

Incoming: Which viability, T/C is reported for this compound? Nc1ccn(C2OC(CO)C(O)C2(F)F)c(=O)n1 (stereo unspecified) + NC1CC1c1ccc(-c2cccc(O)c2)cc1
Outgoing: 90.1

Incoming: Which viability, T/C is reported for this compound? Nc1ncn(C2CC(O)C(CO)S2)c(=O)n1 (stereo unspecified) + NC1CCC(NC2CC2c2ccccc2)CC1
Outgoing: 103
